Where do the numbers come from? From patent US6248901A.

biological target: rat mGluR2 receptor (Rattus norvegicus)
Sequence (P31421 19-872): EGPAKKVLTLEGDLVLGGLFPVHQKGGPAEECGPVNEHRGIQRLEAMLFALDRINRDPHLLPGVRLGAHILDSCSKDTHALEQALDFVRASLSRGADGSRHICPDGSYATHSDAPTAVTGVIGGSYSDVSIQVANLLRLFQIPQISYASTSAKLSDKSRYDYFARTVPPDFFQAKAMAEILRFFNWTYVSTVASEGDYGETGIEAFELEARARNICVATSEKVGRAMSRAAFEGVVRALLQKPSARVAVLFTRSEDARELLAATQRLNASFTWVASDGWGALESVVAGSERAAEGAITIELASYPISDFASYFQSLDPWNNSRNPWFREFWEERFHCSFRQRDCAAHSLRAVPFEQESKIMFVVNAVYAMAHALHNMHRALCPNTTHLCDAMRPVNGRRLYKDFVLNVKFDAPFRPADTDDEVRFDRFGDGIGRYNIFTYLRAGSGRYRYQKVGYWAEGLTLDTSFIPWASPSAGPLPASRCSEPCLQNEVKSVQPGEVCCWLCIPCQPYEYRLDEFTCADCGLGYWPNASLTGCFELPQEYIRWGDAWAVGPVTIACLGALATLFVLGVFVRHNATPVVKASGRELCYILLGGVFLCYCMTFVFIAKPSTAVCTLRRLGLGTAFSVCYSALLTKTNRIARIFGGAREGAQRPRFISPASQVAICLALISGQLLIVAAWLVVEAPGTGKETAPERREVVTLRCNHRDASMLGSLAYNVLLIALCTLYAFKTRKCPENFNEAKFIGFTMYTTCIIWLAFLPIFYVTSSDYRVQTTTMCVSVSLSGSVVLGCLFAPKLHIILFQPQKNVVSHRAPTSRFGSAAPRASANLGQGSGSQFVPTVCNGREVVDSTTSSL
pKi: −log10 of the molar value.
Record class 1 whenever pKi is at 6 or higher; record class 0 when lower.

Ask | // inclusive: pKi at least 6? input: `CC(C)OC(=Cn1cncn1)c1c(Cl)cc(Cl)cc1Cl`
Reply | class 0

Ask | // inclusive: pKi at least 6? input: `COC(=Cn1cncn1)c1ccc(Cl)cc1Cl`
Reply | class 0

Ask | // inclusive: pKi at least 6? input: `CC(C)COC(=Cn1cncn1)c1ccc(Cl)cc1Cl`
Reply | class 1

----------
Could you please report measured Ki for the items listed next?
target: rat mGluR2 receptor (Rattus norvegicus); assay: GTP γ^35 S test for affinity to group II mGluR (antagonism of 1S,3R-ACPD effect, membranes with rat mGluR2); type: biochemical
# unit: nM | format: bare number

Ask | // Ki lookup, key: CCCCOC(=Cn1cncn1)c1ccc(Cl)cc1Cl [C]
Reply | 1400

Ask | // Ki lookup, key: CC(C)OC(=Cn1cncn1)c1ccc(Cl)cc1Cl [A]
Reply | 1170

Ask | // Ki lookup, key: CCCCOC(=Cn1cncn1)c1ccc(Br)cc1 [F]
Reply | 660
